# assayed-target: human ether-à-go-go-related gene (hERG) potassium channel (human, UniProt Q12809);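 note: peak tail current of the secondary pulse compared with the same well before compound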
# Sequence (Q12809 whole entry, looked up): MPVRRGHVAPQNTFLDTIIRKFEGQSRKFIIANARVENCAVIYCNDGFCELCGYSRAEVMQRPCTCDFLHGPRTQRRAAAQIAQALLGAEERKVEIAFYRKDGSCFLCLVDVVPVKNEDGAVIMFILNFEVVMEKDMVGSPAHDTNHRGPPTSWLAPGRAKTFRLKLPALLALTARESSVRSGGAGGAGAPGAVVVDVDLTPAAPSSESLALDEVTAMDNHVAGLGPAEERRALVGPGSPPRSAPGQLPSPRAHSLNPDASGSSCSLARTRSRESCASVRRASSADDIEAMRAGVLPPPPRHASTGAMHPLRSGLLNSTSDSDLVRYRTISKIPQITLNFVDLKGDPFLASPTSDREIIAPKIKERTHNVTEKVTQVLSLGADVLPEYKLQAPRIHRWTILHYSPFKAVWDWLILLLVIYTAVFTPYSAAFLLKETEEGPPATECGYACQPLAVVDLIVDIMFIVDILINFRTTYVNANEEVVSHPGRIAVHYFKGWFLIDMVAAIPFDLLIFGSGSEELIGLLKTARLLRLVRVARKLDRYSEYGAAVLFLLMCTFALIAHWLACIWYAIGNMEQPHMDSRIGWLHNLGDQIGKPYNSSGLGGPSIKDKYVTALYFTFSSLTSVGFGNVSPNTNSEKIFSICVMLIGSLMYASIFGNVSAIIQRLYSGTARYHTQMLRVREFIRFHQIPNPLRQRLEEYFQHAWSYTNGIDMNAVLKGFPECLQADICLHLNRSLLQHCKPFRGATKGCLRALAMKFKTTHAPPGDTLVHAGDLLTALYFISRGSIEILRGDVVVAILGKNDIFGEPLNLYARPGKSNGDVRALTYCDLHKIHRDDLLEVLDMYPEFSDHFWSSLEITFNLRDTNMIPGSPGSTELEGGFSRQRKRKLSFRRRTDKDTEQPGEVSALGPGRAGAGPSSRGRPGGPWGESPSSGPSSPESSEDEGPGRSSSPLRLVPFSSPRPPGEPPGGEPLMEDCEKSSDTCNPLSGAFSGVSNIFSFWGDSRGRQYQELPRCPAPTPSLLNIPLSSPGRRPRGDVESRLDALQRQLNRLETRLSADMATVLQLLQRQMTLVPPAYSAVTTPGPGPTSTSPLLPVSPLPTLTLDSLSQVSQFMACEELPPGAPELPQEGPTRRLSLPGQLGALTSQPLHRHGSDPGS
# experiment-summary: primary screen, population patch clamp on CHO cells stably expressing hERG; higher = less effect of the substance
The whole screen tested about 310,000 compounds, of which about 14,000 (4.5%) showed an effect of 50% or more. Effects have a minus sign here. The sample holds strong results, similar compounds and a random draw of the others, so the mix is not that of the screen.
// reported hERG current change (%, negative = inhibition) at 10uM per item
endpoint-label: hERG current change (%, negative = inhibition) at 10uM (%)

INSERT INTO results (compound, observed) VALUES
  ('COc1ccc(NC(=O)C2CCN(S(=O)(=O)c3cccc4cccnc34)CC2)cc1OC', 9.47),
  ('Cc1nnc(NC2=NCCC2)o1', 3.71),
  ('O=C(N/C(=C/c1ccc(F)cc1)C(=O)N1CCCC1)c1ccccc1', 19.5),
  ('CCN(CC(=O)Nc1ccc2c(c1)OCCO2)CC(=O)Nc1ccc2c(c1)OCO2', 28),
  ('CCOc1ccc(-c2nnc(N3CCCCC3)c3ccccc23)cc1', -6.17),
  ('C/C(=N\NC(=O)c1ccccc1O)c1ccc(Br)s1', 11),
  ('CN1CCN(C(=O)/C(=C/c2ccc(F)cc2)NC(=O)c2ccccc2)CC1', -77.8),
  ('COc1ccc(NC(=O)CN2CCN(c3ccccn3)CC2)cc1Cl', -17.4),
  ('O=C(N/C(=C\c1ccc(F)cc1)C(=O)N1CCCCCC1)c1ccccc1', -11.6),
  ('CCN(c1ccccc1)S(=O)(=O)c1ccc(Cl)c(C(=O)OCC(=O)c2[nH]c(C)c(C(C)=O)c2C)c1', -22.6),
  ('CCC(C(=O)Nc1ccc2c(c1)OCCO2)c1ccccc1 (stereo not drawn)', 13.4),
  ('CC1CCN(C(=O)/C(=C\c2ccccc2F)NC(=O)c2ccccc2)CC1', -52.7),
  ('CCN1CCN(c2nnc(-c3ccccc3)c3ccccc23)CC1', -36.8),
  ('Cc1ccc(-c2nnc(N3CCCCCC3)c3ccccc23)cc1', 1),
  ('CCOC(=O)c1c(NC(=O)CSc2nnc(-c3cccnc3)o2)sc(C(C)=O)c1C', -46.1),
  ('COc1ccc(-c2nnc(N3CCOCC3)c3ccccc23)cc1', -2.78),
  ('CN(C)/C=C(\C(=O)c1ccc(F)cc1F)c1nnnn1-c1ccccc1', 21.1),
  ('Cc1ccc(-c2nnc(N3CCN(CCO)CC3)c3ccccc23)cc1', -58.4),
  ('Cc1ccc(Cn2c(=N)c(S(=O)(=O)c3ccc(C)cc3)cc3c(=O)n4ccccc4nc32)cc1', 17.7),
  ('NC(=O)c1cccnc1OCC(F)(F)F', 2.21),
  ('CN1CCN(C(=O)/C(=C/c2ccc(N(C)C)cc2)NC(=O)c2ccccc2)CC1', -17.5);
